measured on: T1, canine CD20 ECD2 peptide (canine)
T1 peptide: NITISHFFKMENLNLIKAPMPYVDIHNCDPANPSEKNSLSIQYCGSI
test method notes: ELISA on canine CD20 ECD2 peptide

>  <binder>
1E4-cIgGB with N33 to F substitution in VL (antibody, V domains shown, Whole antibody (heavy plus light chains) made 'using the above procedures') VH: EVQLVESGGGLVKPGGSLKLSCAASGFTFSDYGMLWVRQAPEKGLEWIAYISSGSSTIYYADRVKGRFTISRDNAKNTLFLQMTSLRSEDTAMYYCSTGTFAYWGQGTPVTVSS VL: DVVMTQNPLSLPVSLGDQASISCRSSQSLIYNFGNTYLHWYRQKPGQSPKLLIYKVSNRFSGVPDRFSGSGSGTDFTLKISRVEAEDLGVYFCSQSTHVPFTFGSGTKLEIKR

>  <binding result>
binds

$$$$
>  <binder>
1E4-cIgGB with G34 to P substitution in VL (antibody, V domains shown, Whole antibody (heavy plus light chains) made 'using the above procedures') VH: EVQLVESGGGLVKPGGSLKLSCAASGFTFSDYGMLWVRQAPEKGLEWIAYISSGSSTIYYADRVKGRFTISRDNAKNTLFLQMTSLRSEDTAMYYCSTGTFAYWGQGTPVTVSS VL: DVVMTQNPLSLPVSLGDQASISCRSSQSLIYNNPNTYLHWYRQKPGQSPKLLIYKVSNRFSGVPDRFSGSGSGTDFTLKISRVEAEDLGVYFCSQSTHVPFTFGSGTKLEIKR

>  <binding result>
binds

$$$$
>  <binder>
1E4-cIgGB with G34 to Y substitution in VL (antibody, V domains shown, Whole antibody (heavy plus light chains) made 'using the above procedures') VH: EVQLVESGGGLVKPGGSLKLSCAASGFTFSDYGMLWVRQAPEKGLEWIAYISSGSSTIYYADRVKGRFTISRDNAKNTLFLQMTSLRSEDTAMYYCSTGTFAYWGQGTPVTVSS VL: DVVMTQNPLSLPVSLGDQASISCRSSQSLIYNNYNTYLHWYRQKPGQSPKLLIYKVSNRFSGVPDRFSGSGSGTDFTLKISRVEAEDLGVYFCSQSTHVPFTFGSGTKLEIKR

>  <binding result>
binds

$$$$
